- target.of.assay: T1, recombinant human IL1RAP protein, extracellular domain His-tagged (Sino Biological, Cat #10121-H08H) (human, UniProt Q9NPH3 21-367)
- T1 construct: extracellular domain; Bought protein; The Octet analyte is printed as huIL1RAP-His (Sino Biological, lot MB08MA1301) without a catalogue number; also called huIL1RAP-His; hIL1RAP; not shown: His tag
- T1 sequence (looked up): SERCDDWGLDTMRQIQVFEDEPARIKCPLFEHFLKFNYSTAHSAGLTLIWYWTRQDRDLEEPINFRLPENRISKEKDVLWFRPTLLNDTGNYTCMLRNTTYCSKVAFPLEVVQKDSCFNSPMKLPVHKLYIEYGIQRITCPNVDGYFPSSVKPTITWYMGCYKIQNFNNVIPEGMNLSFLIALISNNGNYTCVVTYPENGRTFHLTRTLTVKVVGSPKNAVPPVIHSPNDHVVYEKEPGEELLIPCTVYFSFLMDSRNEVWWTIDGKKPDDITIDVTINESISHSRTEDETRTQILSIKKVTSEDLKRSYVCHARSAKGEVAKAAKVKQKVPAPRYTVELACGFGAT
- test.protocol: Octet BLI; mAb captured on anti-mouse IgG Fc sensor; huIL1RAP-His analyte
value.type: Response
# answer = number (no unit)

binder="STLX2025 (antibody, V domains shown, Purified from hybridoma of immunized Alivamab mice; intact IgG; captured on anti-mouse IgG Fc sensors in Octet; kappa light chain; also called 74804_25H09A) VH: QVQLVQSGAEVKKPGSSVKVSCKASGDTFSNYAITWVRQAPGQGLEWIVGFSPIFGTANYAQKFQGRVTITADKSTSTAYMELSSLISEDTAVYYCAWGSGNFNWFDPWGQGTLVTVSS VL: AIRMTQSPSSFSASTGDRVTITCRASQGISSYLAWYQQKPGKAPKLLIYAASTLQSGVPSRFSGSGSGTDFTLTISSLQSEDFATYYCQQYYSYPLTFGGGTKVEIK" reported_value=0.26
binder="STLX2005 (antibody, V domains shown, Purified from hybridoma of immunized Alivamab mice; intact IgG; captured on anti-mouse IgG Fc sensors in Octet; kappa light chain; also called 74804_05B24A) VH: EVQLVDSGGGLVKPGGSLRLSCAATGFTFSNVWMSWVRQGSGKGLEWVGRIKSKTDGGTIDYAAPVKGRFTISRDDPKNTLYLQMNSLKTEDTAVYYCTTGELLGFDYWGQGTLVTVSS VL: DIVMTQSPLSLPVTPGEPASISCRSGQSLLHNNGFNCLAWYLQKPGQSPQLLIYLGSNRASGVPDRFSGSGSGTDFTLKISRVEAEDVGVFYCMQTLQTPITFGQGTRLEIK" reported_value=0.268
binder="STLX2007 (antibody, V domains shown, Purified from hybridoma of immunized Alivamab mice; intact IgG; captured on anti-mouse IgG Fc sensors in Octet; kappa light chain; also called 74804_07K10A) VH: QVQLLQSGAEVKKPGSSVKVSCRASGGTFSIYAIDWVRQAPGQGLEWMGGIIPISGTENSAQNFQDRITITADKSTNTAYMELSSLRSEDTAVYYCARNGATSDAFDIWGQGTMVTVSS VL: EIVLTQSPGTLSLSPGERATLSCRASLSVSSNYLAWFQQRPGQAPRLLIYGVSRRATGIPDRFSGSGSGTDFTLTISRLEPEDFAVYYCQQYGSSPLTFGGGTKVEIK" reported_value=0.247
binder="STLX2018 (antibody, V domains shown, Purified from hybridoma of immunized Alivamab mice; intact IgG; captured on anti-mouse IgG Fc sensors in Octet; kappa light chain; also called 74804_18L05A) VH: QVQLVQSGAEVKKPGASVKVSCKTSGYTFTSCCMHWVRQAPGQGLEWMGIINPSVGSTSYAQKFQGIVTMTRDTSTSTVYMELSSLRSEDTAVYYCAVDSSGSRYYYGMDVWGQGTTVTVSS VL: EIVMTQSPATLSVSPGERATLSCRASQSVRSNLAWYQQRPGQAPRLLIYGTSTRATGIPARFSGSGSGTEFTLTISSLQSEDFAVYYCQQYNYWPYTFGQGTKLEIK" reported_value=0.17

Please find the next binder below.
Entry STLX2012 (antibody, V domains shown, Purified from hybridoma of immunized Alivamab mice; intact IgG; captured on anti-mouse IgG Fc sensors in Octet; kappa light chain; also called 74804_12A21B) VH: QVQLLQSGAEVKKPGSSVKVSCKASGGTFSIYAIDWVRQAPGQGLEWMGGIIPIFGTANSAQKFQGRVTITADKSTSTAYMELSSLRSEDTAVYYCARNGATSDAFDMWGQGTMVTVSS VL: EIVLTQSPGTLSLSPGERATLSCRASLSVSSNYLAWFQQRPGQAPRLLIHGVSRRATGIPDRFSGSGSGTDFTLTISRLEPEDFAVYYCQQYGSSPLTFGGGTKVEIK : reported Response = ?
0.303
